- MEASURED TARGET: phosphorylated chicken gizzard smooth muscle myosin (Gallus gallus)
- Sequence (P10587 2-1979 limits assumed): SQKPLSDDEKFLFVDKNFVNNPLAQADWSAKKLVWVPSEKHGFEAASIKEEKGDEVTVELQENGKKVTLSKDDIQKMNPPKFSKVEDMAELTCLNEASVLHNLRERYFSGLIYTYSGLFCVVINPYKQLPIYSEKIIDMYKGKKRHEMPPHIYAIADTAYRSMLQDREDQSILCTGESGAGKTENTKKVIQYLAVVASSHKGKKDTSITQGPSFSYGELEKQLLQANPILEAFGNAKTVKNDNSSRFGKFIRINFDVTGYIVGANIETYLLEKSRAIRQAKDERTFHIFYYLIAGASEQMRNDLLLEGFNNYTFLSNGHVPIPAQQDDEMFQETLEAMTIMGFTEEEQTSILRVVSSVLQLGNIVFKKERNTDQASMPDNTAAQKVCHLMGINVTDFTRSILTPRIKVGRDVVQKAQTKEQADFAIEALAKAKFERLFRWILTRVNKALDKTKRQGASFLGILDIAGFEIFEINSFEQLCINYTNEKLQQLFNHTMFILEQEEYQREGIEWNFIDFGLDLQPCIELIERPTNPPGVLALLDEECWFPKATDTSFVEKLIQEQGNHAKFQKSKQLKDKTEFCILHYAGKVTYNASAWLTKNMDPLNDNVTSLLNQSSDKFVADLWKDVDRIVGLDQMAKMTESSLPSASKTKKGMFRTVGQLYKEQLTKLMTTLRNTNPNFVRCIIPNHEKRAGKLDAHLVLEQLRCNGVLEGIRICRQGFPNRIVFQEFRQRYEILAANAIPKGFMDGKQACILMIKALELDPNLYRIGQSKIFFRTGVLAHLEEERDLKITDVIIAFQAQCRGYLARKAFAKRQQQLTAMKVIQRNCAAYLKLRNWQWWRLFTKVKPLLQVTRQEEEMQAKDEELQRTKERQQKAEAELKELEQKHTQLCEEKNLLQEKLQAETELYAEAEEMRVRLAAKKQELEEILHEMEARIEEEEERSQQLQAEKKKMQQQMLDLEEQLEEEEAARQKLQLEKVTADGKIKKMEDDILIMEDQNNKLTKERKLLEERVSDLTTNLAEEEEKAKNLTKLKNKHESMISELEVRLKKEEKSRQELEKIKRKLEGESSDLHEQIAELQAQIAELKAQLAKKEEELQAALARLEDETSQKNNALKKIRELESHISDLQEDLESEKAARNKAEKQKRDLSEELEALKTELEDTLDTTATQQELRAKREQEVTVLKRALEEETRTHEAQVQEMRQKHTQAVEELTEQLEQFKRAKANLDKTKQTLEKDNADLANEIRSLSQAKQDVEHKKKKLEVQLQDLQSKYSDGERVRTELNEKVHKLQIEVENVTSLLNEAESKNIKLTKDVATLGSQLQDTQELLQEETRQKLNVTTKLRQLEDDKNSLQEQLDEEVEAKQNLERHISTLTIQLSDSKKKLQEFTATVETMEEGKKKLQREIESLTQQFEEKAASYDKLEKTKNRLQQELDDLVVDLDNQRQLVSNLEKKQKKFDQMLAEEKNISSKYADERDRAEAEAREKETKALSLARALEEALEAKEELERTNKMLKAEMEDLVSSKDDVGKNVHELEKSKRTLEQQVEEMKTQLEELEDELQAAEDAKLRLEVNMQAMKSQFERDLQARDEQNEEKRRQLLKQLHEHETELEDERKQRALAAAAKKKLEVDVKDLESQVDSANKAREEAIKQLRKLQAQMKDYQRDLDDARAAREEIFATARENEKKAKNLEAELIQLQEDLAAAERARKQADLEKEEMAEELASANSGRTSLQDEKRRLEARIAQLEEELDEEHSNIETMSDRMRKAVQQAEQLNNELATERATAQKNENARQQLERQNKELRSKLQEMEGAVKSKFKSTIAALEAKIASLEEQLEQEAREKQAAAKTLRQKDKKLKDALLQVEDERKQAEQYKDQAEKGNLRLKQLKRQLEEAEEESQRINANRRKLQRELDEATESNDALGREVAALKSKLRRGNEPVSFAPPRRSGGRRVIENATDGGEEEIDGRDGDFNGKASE
- MEASUREMENT DESCRIPTION: Steady-state actin-activated Mg2+ ATPase inhibition, smooth muscle myosin
VALUE KIND: IC50

{"COMPOUND": "COc1ccc(COCCC/N=C(\\C)c2c(O)c3ccccc3oc2=O)cc1 [Analog 13b]", "RESULT": "≥ 100 µM"}
{"COMPOUND": "COc1cc(/C=C/C(=O)c2c(O)c3ccccc3oc2=O)ccc1O [Analog 20]", "RESULT": "≥ 100 µM"}
{"COMPOUND": "CCOCCC/N=C/c1c(O)c2ccccc2oc1=O [Analog 8a]", "RESULT": "≥ 100 µM"}
{"COMPOUND": "COc1ccc(C/N=C(\\C)c2c(O)c3ccccc3oc2=O)cc1 [Analog 6b]", "RESULT": "≥ 100 µM"}
{"COMPOUND": "COCCC/N=C(\\C)c1c(O)c2ccccc2oc1=O [Analog 5c]", "RESULT": "≥ 100 µM"}
{"COMPOUND": "CCOCCC/N=C(\\C)c1c(O)c2ccccc2oc1=O [Analog 5d]", "RESULT": "≥ 100 µM"}
{"COMPOUND": "COc1cccc(C/N=C(\\C)c2c(O)c3ccccc3oc2=O)c1 [Analog 6a]", "RESULT": "≥ 100 µM"}
{"COMPOUND": "CCCCN(CCC/N=C(\\C)c1c(O)c2ccccc2oc1=O)Cc1cccc(OC)c1 [Analog 19]", "RESULT": "≥ 100 µM"}
{"COMPOUND": "COCC/N=C(\\C)c1c(O)c2ccccc2oc1=O [Analog 5a]", "RESULT": "≥ 100 µM"}
{"COMPOUND": "C/C(=N\\CCCOCc1ccc2c(c1)OCO2)c1c(O)c2ccccc2oc1=O [Analog 13c]", "RESULT": "≥ 100 µM"}
{"COMPOUND": "CCOCC/N=C(\\C)c1c(O)c2ccccc2oc1=O [Analog 5b]", "RESULT": "≥ 100 µM"}
